System: A498 renal
PROCEDURE TEXT: NCI-60 one-dose screen, 48 h (100 = growth as untreated, 0 = no growth, -100 = all killed)
CONDITION PARAMETERS: 10 µM unless noted
The panel holds about 83,000 compounds, 20% with a hit somewhere; the sample as a whole holds those more often.
Consider the cut-off 90%. If the recorded growth is strictly smaller, the label is 1; if not, the label is 0.

Record `COC(=O)[C@H]1CCCN1C(=O)[C@H]1CCCN1C(=O)[C@H](Cc1c[nH]c2ccccc12)NC(=S)Nc1cc(C(F)(F)F)cc(C(F)(F)F)c1` : is its growth strictly below 90%? 1

State whether 90% exceeds growth recorded for `COc1ccc(CSc2nnc(SCC(=O)Nc3ccc(Cl)cc3)s2)cc1` . 1

In the record for COc1cc(C(C)n2cc(-c3ccccc3)nn2)ccc1OC1CCCCC1 (stereo not given) , is growth less than 90%? 1

Does `Cn1nc(C(F)(F)F)c(-c2ccc(Cl)c(C(F)(F)F)c2)c1-c1ccc(OCc2ccc(Cl)cc2)cc1O` have growth strictly under 90%? 1

Is growth of `O=Cc1c(OCc2cnnn2CC(=O)Nc2ccc(Cl)cc2)ccc2ccccc12` strictly below 90%? 0

Dear colleague, could you confirm whether growth of `CN(C)CCCNCc1ccc(-c2ccc(F)c(Cl)c2)o1` falls below 90%? Thanks. 1

Quick check: growth of `Cc1ccc(C)c(-c2csc(Nc3ccc(C)c(C)c3)n2)c1` under 90%? 1

Record CC1(C)CC2(C)OC2C2(C1)N=NC(=Nc1ccccc1)O2 (stereo not given) : is its growth strictly below 90%? 0
